For each of the compounds below, state its Inf Activity.
Tested on: ATXN2-luc
Experiment: NCATS qHTS (LOPAC pilot, primary and confirmation): ATXN2-luc in S2 cells, 1536-well, Steady-Glo
Assay type: cell-based, human
Conditions: LOPAC library screening optimization; curve-fit parameter
Procedure: We next performed a pilot screen assay to optimize the 1536-well qHTS using S2 cells. […] Cytotoxicity was determined using a multiplexed viability assay (CellTiter-Fluor, a fluorescence-based viability assay using Gly-Phe-7-amino-4-trifluoromethylcoumarin substrate). […] The primary assay was conducted at the NCATS NIH Chemical Genomics Center laboratory. […] Luminescence was then measured on the ViewLux imager equipped with clear filters using a 2 s exposure. […]
Counter-ions that a name gives are not always drawn.
Give bare numbers.

CC(C)NC[C@@H](O)c1ccc(O)c(O)c1 [S(+)-Isoproterenol (+)-bitartrate] has a reported Inf Activity of -79.7998

Consider the following items and state reported Inf Activity for each.
1. COc1cc(C[C@H](C)N)c(OC)cc1Br.Cl
2. C=C[C@H]1C[N@@]2CC[C@H]1C[C@H]2[C@H](O)c1ccnc2ccc(OC)cc12 [Quinine sulfate]

1: -55.207; 2: -66.665

====

Test system: ATXN2-luc
Assay: ATXN2-luc luciferase dose-response in H2 cells, 48 h
Format: cell-based
Details: Homo sapiens, H2 cells, read-out: IC50 for lowering ATXN2-luc
readout_label: IC50 (nM)
Give bare numbers, in nM.

Short answer on ATXN2-luc for CO[C@H]1/C=C\C=C(/C)C(=O)NC2=CC(=O)C(NCCN(C)C)=C(C[C@@H](C)C[C@H](OC)[C@H](O)[C@@H](C)/C=C(\C)[C@@H]1OC(N)=O)C2=O [17-DMAG] , IC50: 93

====

System: ATXN2-luc
Test: NCATS qHTS (LOPAC pilot, primary and confirmation): ATXN2-luc in S2 cells, 1536-well, Steady-Glo
Format: cell-based, human
Details: LOPAC library screening optimization; curve-fit parameter
Structures can show the parent of a compound that is named as a salt.
Decision: Inf Activity >= -70 yields condition met, all other cases yield condition not met.

Study these solved cases before continuing.
Confirm if Inf Activity reported for the compound Br.COc1cc(CC(C)N)c(OC)cc1Br (stereo not drawn) is -70 or above. condition met

Confirm if Inf Activity reported for the compound CNCC[C@@H](Oc1ccccc1C)c1ccccc1 [Tomoxetine] is -70 or above. condition not met

Confirm if Inf Activity reported for the compound COc1cc(C[C@@H](C)N)c(OC)cc1Br.Cl is -70 or above. condition not met

Confirm if Inf Activity reported for the compound CC[C@@H](O)C(C[C@@H](C)N(C)C)(c1ccccc1)c1ccccc1.Cl [(-)-alpha-Methadol hydrochloride] is -70 or above. condition met

Confirm if Inf Activity reported for the compound Clc1ccc2c(c1)C(N1CCNCC1)=Nc1ccccc1O2 [Amoxapine] is -70 or above. condition met

***
Confirm if Inf Activity reported for the compound C[C@@H]1O[C@@H](O[C@H]2C[C@@H](O)[C@]3(CO)[C@@H]4[C@@H](O)C[C@]5(C)[C@H](C6=CC(=O)OC6)CC[C@@]5(O)[C@H]4CC[C@@]3(O)C2)[C@H](O)[C@H](O)[C@@H]1O.O.O.O.O.O.O.O.O [Strophantine octahydrate] is -70 or above. condition not met

Confirm if Inf Activity reported for the compound O=C(Cc1ccc(Cl)c(Cl)c1)N1CCCCC1CN1CCCC1 (stereo not drawn) [BRL 52537 hydrochloride] is -70 or above. condition not met

Confirm if Inf Activity reported for the compound Br.C[C@H]1C2Cc3ccc(O)cc3[C@]1(C)CCN2CCc1ccccc1 (single isomer, unassigned; (-)) [(-)-Phenazocine hydrobromide] is -70 or above. condition met

Confirm if Inf Activity reported for the compound c1ccc(CN2CCC3(CCCc4ccccc43)CC2)cc1 [L-687,384 hydrochloride] is -70 or above. condition met

Confirm if Inf Activity reported for the compound CNCC[C@H](Oc1ccc(C(F)(F)F)cc1)c1ccccc1.Cl [MLS002153300-01] is -70 or above. condition not met

Confirm if Inf Activity reported for the compound CC[C@H](O)C(C[C@H](C)N(C)C)(c1ccccc1)c1ccccc1.Cl [(+)-alpha-Methadol hydrochloride] is -70 or above. condition met

Confirm if Inf Activity reported for the compound C[C@H]1O[C@@H](O[C@H]2CC[C@]3(C=O)[C@H]4CC[C@]5(C)[C@@H](C6=CC(=O)OC6)CC[C@]5(O)[C@@H]4CC[C@]3(O)C2)C[C@H](O)[C@@H]1O [Helveticoside] is -70 or above. condition not met

Confirm if Inf Activity reported for the compound CNCCCC1c2ccccc2C=Cc2ccccc21 [Protriptyline hydrochloride] is -70 or above. condition met

Confirm if Inf Activity reported for the compound Br.CC1C2Cc3ccc(O)cc3C1(C)CCN2CCc1ccccc1 (single isomer, unassigned; (+)) [(+)-Phenazocine hydrobromide] is -70 or above. condition met

Confirm if Inf Activity reported for the compound CNCCC(Oc1ccc(C(F)(F)F)cc1)c1ccccc1.Cl (stereo not drawn) [MLS001076338-01] is -70 or above. condition not met

Just for reference, paper PMC9356275 is where these values come from.
